- Study target: Indicator molecule containing the cleavable sequence GPQGIFGQ with a terminal biotin group connected via a polyethylene glycol spacer/linker (intact, Examples 1-6)
Recorded endpoint: Reader value (lateral flow, CF1522-gold) with MMP at 0.5 ug/ml (reader units)
A number alone suffices; assume reader units.

Qu. What does the record list as Reader value (lateral flow, CF1522-gold) with MMP at 0.5 ug/ml for MMP11 (Enzo) (protein) FVLSGGRWEKTDLTYRILRFPWQLVQEQVRQTMAEALKVWSDVTPLTFTEVHEGRADIMIDFARYWHGDDLPFDGPGGILAHAFFPKTHREGDVHFDYDETWTIGDDQGTDLLQVAAHEFGHVLGLQHTTAAKALMSAFYTFRYPLSLSPDDCRGVQHLYGQPWPTVTSRTPALG ?
Ans. 280
